Values were extracted from patent US20170022281A1.

Listed here are binders together with their documented Kd.
- test_target: T1, cyno PRLR (Biacore antigen) (cyno, UniProt A0A2K5WXK1 25-234)
- T1 construct: also called cyPRLR
- T1 sequence: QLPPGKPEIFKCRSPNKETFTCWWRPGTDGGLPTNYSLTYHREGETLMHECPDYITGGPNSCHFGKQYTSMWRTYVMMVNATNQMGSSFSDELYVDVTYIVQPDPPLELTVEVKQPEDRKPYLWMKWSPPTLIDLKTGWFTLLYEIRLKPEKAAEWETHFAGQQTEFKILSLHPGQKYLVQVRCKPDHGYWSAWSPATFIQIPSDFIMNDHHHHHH
- experimental_protocol: SPR Biacore
endpoint: Kd (nM)

binder | endpoint | unit_of_measurement | reported_result
Ab48 (antibody, human IgG1, kappa, V domains shown, humanized from Ab8; G1; also called Ab3 HC.1a and Ab3 LC.1a) VH: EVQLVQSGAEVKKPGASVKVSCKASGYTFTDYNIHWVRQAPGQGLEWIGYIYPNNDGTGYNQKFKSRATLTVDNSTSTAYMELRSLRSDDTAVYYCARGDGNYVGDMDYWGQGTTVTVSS VL: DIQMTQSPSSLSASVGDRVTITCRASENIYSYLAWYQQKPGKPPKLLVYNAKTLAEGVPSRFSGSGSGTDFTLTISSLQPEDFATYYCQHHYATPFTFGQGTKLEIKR | Kd | nM | 9.77
Ab54 (antibody, human IgG1, kappa, V domains shown, humanized from Ab7 (back mutations on Ab39); G1; also called Ab4 HC.1a.3 and Ab4 LC.1a) VH: EVQLVQSGAEVKKPGSSVKVSCKASGYTFTSYWIHWVRQAPGQGLEWIGEIDPSDSYTNYNQKFKGRATLTVDKSSSTAYMELSSLRSEDTAVYYCGRSFFTNWFAYWGQGTLVTVSS VL: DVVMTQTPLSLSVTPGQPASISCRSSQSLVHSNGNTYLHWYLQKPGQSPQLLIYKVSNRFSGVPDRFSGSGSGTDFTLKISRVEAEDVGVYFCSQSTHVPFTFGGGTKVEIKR | Kd | nM | 0.85
Ab7 (antibody, V domains shown, murine monoclonal, isotype G1; also called murine Ab7) VH: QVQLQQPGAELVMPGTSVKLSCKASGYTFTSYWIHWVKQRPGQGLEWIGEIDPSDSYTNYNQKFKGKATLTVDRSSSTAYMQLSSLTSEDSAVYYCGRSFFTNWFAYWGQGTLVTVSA VL: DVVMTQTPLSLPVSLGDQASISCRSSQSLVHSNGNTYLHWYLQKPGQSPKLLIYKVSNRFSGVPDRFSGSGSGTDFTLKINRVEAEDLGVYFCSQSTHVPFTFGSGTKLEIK | Kd | nM | 0.127
Ab30 (antibody, human IgG1, kappa, V domains shown, humanized from Ab5; G1; also called Ab2 HC.1a and Ab2 LC.1a) VH: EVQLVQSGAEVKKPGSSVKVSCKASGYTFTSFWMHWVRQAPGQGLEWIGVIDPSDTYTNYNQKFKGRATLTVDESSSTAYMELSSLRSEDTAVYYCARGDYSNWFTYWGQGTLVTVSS VL: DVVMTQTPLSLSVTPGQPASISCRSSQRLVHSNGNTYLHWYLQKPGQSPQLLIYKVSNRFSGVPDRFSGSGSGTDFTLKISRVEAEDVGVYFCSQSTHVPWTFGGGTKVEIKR | Kd | nM | 1.59
chAb8 (antibody, human IgG1, kappa, V domains shown, chimeric, murine variable and human G1/kappa constant regions) VH: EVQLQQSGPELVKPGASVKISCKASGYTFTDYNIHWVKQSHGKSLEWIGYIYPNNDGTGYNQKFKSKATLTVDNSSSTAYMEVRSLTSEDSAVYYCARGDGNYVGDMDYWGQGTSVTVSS VL: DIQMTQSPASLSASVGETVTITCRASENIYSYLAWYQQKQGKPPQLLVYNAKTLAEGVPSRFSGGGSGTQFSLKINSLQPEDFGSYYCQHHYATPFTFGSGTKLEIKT | Kd | nM | 3.44
